system: Fibroblast; experiment: Multiplex assay against human fibroblast; type: toxicity, cell-based; conditions: 12 h, 1 µM, compound concentration 1 uM, replicate 1
Attribute: Population Membrane Permeable-Phenotype (%)
The reply should contain only the number, in %.

{"Molecule": "Nc1nc(CC(=O)Nc2ccc(CCNC[C@H](O)c3ccccc3)cc2)cs1 [MIRABEGRON]", "Test value": 0}
{"Molecule": "O=c1ccc2ccc(OCCCCN3CCN(c4cccc5sccc45)CC3)cc2[nH]1 [BREXPIPRAZOLE]", "Test value": 0}
{"Molecule": "Cc1cc(NC(=O)NCCN2CCC(O)(Cc3ccccc3)CC2)c2ccccc2n1 [PALOSURAN]", "Test value": 3}

Fill in the blank: the reported Population Membrane Permeable-Phenotype (%) of COc1ccc2[nH]c(I)c(CCNC(C)=O)c2c1 [IODOMELATONIN] is ____.
4

Same thing, different molecule: O=c1nc2[nH]c3ccccc3nc-2c(=O)[nH]1 [ALLOXAZINE]
0

Follow-up entry: CN1CCN2c3ccccc3Cc3ccccc3C2C1.Cl (centres undefined) [MIANSERIN HYDROCHLORIDE]
1

Moving on to the next molecule: O=C(O)CCC/C=C\CC1C(O)CC(O)C1/C=C/C(O)COc1cccc(Cl)c1 (centres undefined) [CLOPROSTENOL]
0

And then CC(C)(O)C(=O)N1CCN(c2ccc(C(F)(F)F)c(C3=C(c4c[nH]c5ccccc45)C(=O)NC3=O)c2)CC1 , what is it?
0

Further, for CN(C)C/C=C/C(=O)Nc1ccc(C(=O)N2CCCC(Nc3ncc(Cl)c(-c4c[nH]c5ccccc45)n3)C2)cc1 (centres undefined) ?
2

----------
system: Fibroblast; test: Multiplex assay against human fibroblast; assay type: toxicity, cell-based; settings: 48 h, 1 µM, compound concentration 1 uM, replicate 2
Property: Population Membrane Permeable-Phenotype (%); scope: individual compounds
The figure you give is taken to be in %; do not add the unit.

Please review the following examples before continuing.
{"Compound": "CCCCC[C@H](O)/C=C/[C@H]1[C@H](O)CC(=O)[C@@H]1CCCCCCC(=O)O [ALPROSTADIL]", "Test value": 6}
{"Compound": "CC(C)C[C@H](CO)Nc1nc(S[C@@H](C)c2ccccc2)nc2nc(N)sc12 [AZD-8797]", "Test value": 4}
{"Compound": "COc1ccc2c(c1OCc1ccccc1)C[C@@H](C(=O)O)N(C(=O)C(c1ccccc1)c1ccccc1)C2 [OLODANRIGAN]", "Test value": 1}

Now consider the entry below.
Record request: Population Membrane Permeable-Phenotype (%) value, item N[C@](CC1c2ccccc2Oc2ccccc21)(C(=O)O)[C@H]1C[C@@H]1C(=O)O
9

----------
// Population Membrane Permeable-Phenotype (%) lookup, one value per entry
system: U2OS; assay: Multiplex assay against U2OS; assay type: toxicity, cell-based; details: human, 48 h, 1 µM, compound concentration 1 uM, replicate 2
The reply should contain only the number, in %.

{"Compound": "Cc1cc(O)c(-c2ccc([C@@H](C)CN(C)C)cc2)c2c1[nH]c(=O)c1sccc12", "Uom": "%", "Test value": 35}
{"Compound": "Nc1nc(-c2ccco2)c2cnn(Cc3ccccc3F)c2n1", "Uom": "%", "Test value": 5}

Requested read-out: Population Membrane Permeable-Phenotype (%). Entry: COc1cc(Nc2ncc3c(n2)-c2ccc(Cl)cc2C(c2c(F)cccc2OC)=NC3)ccc1C(=O)O
11

How about CCc1nn2c(C)cc(C)nc2c1Cc1ccc(-c2nnc(C3CCNCC3)o2)cc1 ?
7

Now the same for O=C(Nc1cc(-c2ccccc2)nn1-c1ccccc1F)c1ccc([N+](=O)[O-])cc1
6

And O=c1ccc2ccc(OCCCCN3CCN(c4cccc5sccc45)CC3)cc2[nH]1 ?
34

Would you kindly repeat that for CC(C)(O)C(=O)N1CCN(c2ccc(C(F)(F)F)c(C3=C(c4c[nH]c5ccccc45)C(=O)NC3=O)c2)CC1 ?
7

What do you get for CCC(=O)OCC(=O)[C@@]1(OC(=O)CC)[C@@H](C)C[C@H]2[C@@H]3CCC4=CC(=O)C=C[C@]4(C)[C@@]3(Cl)[C@@H](O)C[C@@]21C [BECLOMETHASONE DIPROPIONATE] ?
8

Same question, O=c1nc2[nH]c3ccccc3nc-2c(=O)[nH]1 this time
4

Try Cc1ccc(OCC(O)C(C)NC(C)C)c2c1CCC2.Cl (stereo not drawn) next.
5

Follow-up entry: COCCn1c(C)c(C)s/c1=N\C(=O)C1C(C)(C)C1(C)C
9

And the next one, CN1CCC(C(=O)c2cccc(NC(=O)c3c(F)cc(F)cc3F)n2)CC1 ?
12

Follow-up item: O=C(NCCNCC(O)COc1ccc(O)cc1)N1CCOCC1.O=C(NCCNCC(O)COc1ccc(O)cc1)N1CCOCC1.O=C(O)/C=C/C(=O)O (stereo not drawn) [XAMOTEROL FUMARATE]
6
